Below, each of the compounds is paired with its reported Activity value.
- Test system: 4T1
- Assay Remarks: Induction of ROS production in mouse 4T1 cells assessed as increase in intracellular ROS level by […] staining based flow cytometry (reference value: 7.8%)
- Type: functional
Field: numeric (%). Do not append units.

For orientation, consider the following solved cases.
• C[C@H]1[C@H](OC(=O)CCC(=O)O)O[C@@H]2O[C@@]3(C)CC[C@H]4[C@H](C)CC[C@@H]1[C@@]24OO3 [ARTESUNATE] = 14.3
• O=C(O)c1cc(O)c2c(c1)C(=O)c1cccc(O)c1C2=O [RHEIN] = 11.8

Now for the compound whose Activity we want.
Enquiry: Please give the documented Activity of C[C@H]1[C@H](OC(=O)CCC(=O)OCCOC(=O)c2cc(O)c3c(c2)C(=O)c2cccc(O)c2C3=O)O[C@@H]2O[C@@]3(C)CC[C@H]4[C@H](C)CC[C@@H]1[C@@]24OO3
Return: 39.6

* * *

- Assay Remarks: Oral bioavailability in mouse at 100 mg/kg
- Format: ADME, organism-based
- Test Conditions: in vivo
Endpoint Name: bioavailability (%)
Respond with the bare value in %.

Enquiry: Annotate the compound C[C@H]1[C@H](OC(=O)CCC(=O)OCCCCOC(=O)c2cc(O)c3c(c2)C(=O)c2cccc(O)c2C3=O)O[C@@H]2O[C@@]3(C)CC[C@H]4[C@H](C)CC[C@@H]1[C@@]24OO3 with its measured bioavailability.
Return: 15.8

* * *

- Tested on: 4T1
- Assay Remarks: Induction of ROS production in mouse 4T1 cells assessed as increase in intracellular ROS level by […] staining based flow cytometry (reference value: 7.8%)
- Assay type: functional
Endpoint Name: Activity
Show the value, then the unit it is measured in.

These solved cases illustrate the format of a correct answer.
- C[C@H]1[C@H](OC(=O)CCC(=O)OCCCCCOC(=O)c2cc(O)c3c(c2)C(=O)c2cccc(O)c2C3=O)O[C@@H]2O[C@@]3(C)CC[C@H]4[C@H](C)CC[C@@H]1[C@@]24OO3: 30%
- C[C@H]1[C@H](OC(=O)CCC(=O)OCCCCOC(=O)c2cc(O)c3c(c2)C(=O)c2cccc(O)c2C3=O)O[C@@H]2O[C@@]3(C)CC[C@H]4[C@H](C)CC[C@@H]1[C@@]24OO3: 42.5%
- C[C@H]1[C@H](OC(=O)CCC(=O)OCCCCCCOC(=O)c2cc(O)c3c(c2)C(=O)c2cccc(O)c2C3=O)O[C@@H]2O[C@@]3(C)CC[C@H]4[C@H](C)CC[C@@H]1[C@@]24OO3: 32.7%

Next molecule, Activity to be filled in.
Enquiry: Specify measured Activity for C[C@H]1[C@H](OC(=O)CCC(=O)OCCCOC(=O)c2cc(O)c3c(c2)C(=O)c2cccc(O)c2C3=O)O[C@@H]2O[C@@]3(C)CC[C@H]4[C@H](C)CC[C@@H]1[C@@]24OO3 .
Return: 31%

* * *

The entries below are paired with their reported Activity.
- Test system: 4T1
- Assay Remarks: Induction of apoptosis in mouse 4T1 cells assessed as necrotic cells by Annexin V-FITC and PI staining based flow cytometry analysis (reference value: 0.085 %)
- Assay type: functional
Reply with just the number (in %).

* C[C@H]1[C@H](OC(=O)CCC(=O)OCCCOC(=O)c2cc(O)c3c(c2)C(=O)c2cccc(O)c2C3=O)O[C@@H]2O[C@@]3(C)CC[C@H]4[C@H](C)CC[C@@H]1[C@@]24OO3 | 3.35
* O=C(O)c1cc(O)c2c(c1)C(=O)c1cccc(O)c1C2=O [RHEIN] | 0.83
* C[C@H]1[C@H](OC(=O)CCC(=O)OCCCCCCOC(=O)c2cc(O)c3c(c2)C(=O)c2cccc(O)c2C3=O)O[C@@H]2O[C@@]3(C)CC[C@H]4[C@H](C)CC[C@@H]1[C@@]24OO3 | 2.37
* C[C@H]1[C@H](OC(=O)CCC(=O)O)O[C@@H]2O[C@@]3(C)CC[C@H]4[C@H](C)CC[C@@H]1[C@@]24OO3 [ARTESUNATE] | 0.71
* C[C@H]1[C@H](OC(=O)CCC(=O)OCCCCCOC(=O)c2cc(O)c3c(c2)C(=O)c2cccc(O)c2C3=O)O[C@@H]2O[C@@]3(C)CC[C@H]4[C@H](C)CC[C@@H]1[C@@]24OO3 | 2.34
* C[C@H]1[C@H](OC(=O)CCC(=O)OCCCCOC(=O)c2cc(O)c3c(c2)C(=O)c2cccc(O)c2C3=O)O[C@@H]2O[C@@]3(C)CC[C@H]4[C@H](C)CC[C@@H]1[C@@]24OO3 | 0.27

Now consider a different compound.
Enquiry: Look up and report measured Activity for this entry: C[C@H]1[C@H](OC(=O)CCC(=O)OCCOC(=O)c2cc(O)c3c(c2)C(=O)c2cccc(O)c2C3=O)O[C@@H]2O[C@@]3(C)CC[C@H]4[C@H](C)CC[C@@H]1[C@@]24OO3
Return: 6.81

Just for reference, ChEMBL document CHEMBL6120988 is where these values come from.
